These records show IC50 for motor domain of human KSP (Eg 5, KNSL1) (Homo sapiens).
Your answer is read as nM, so omit the unit and give the number.

Inquiry: Data request, read-out IC50, for C[C@H](O)C(=O)N(CC[C@H](N)CF)[C@@H](c1nc(-c2cc(F)ccc2F)cn1Cc1ccccc1)C(C)(C)C
Reply text: 0.9

Inquiry: Data request, read-out IC50, for CC(=O)N(CC[C@H](N)CF)[C@@H](c1nc(-c2cc(F)ccc2F)cn1Cc1ccccc1)C(C)(C)C
Reply text: 22

Inquiry: Data request, read-out IC50, for CC(C)(C)[C@H](c1nc(-c2cc(F)ccc2F)cn1Cc1ccccc1)N(CC[C@H](N)CF)C(=O)CO
Reply text: 0.8

Continuing:
Inquiry: Data request, read-out IC50, for COCC(=O)N(CC[C@H](N)CF)[C@@H](c1nc(-c2cc(F)ccc2F)cn1Cc1ccccc1)C(C)(C)C
Reply text: 0.6
